TARGET: E. coli topoisomerase IV (Escherichia coli, UniProt P20083)
Construct: purchased Inspiralis
Sequence (P20083 whole entry): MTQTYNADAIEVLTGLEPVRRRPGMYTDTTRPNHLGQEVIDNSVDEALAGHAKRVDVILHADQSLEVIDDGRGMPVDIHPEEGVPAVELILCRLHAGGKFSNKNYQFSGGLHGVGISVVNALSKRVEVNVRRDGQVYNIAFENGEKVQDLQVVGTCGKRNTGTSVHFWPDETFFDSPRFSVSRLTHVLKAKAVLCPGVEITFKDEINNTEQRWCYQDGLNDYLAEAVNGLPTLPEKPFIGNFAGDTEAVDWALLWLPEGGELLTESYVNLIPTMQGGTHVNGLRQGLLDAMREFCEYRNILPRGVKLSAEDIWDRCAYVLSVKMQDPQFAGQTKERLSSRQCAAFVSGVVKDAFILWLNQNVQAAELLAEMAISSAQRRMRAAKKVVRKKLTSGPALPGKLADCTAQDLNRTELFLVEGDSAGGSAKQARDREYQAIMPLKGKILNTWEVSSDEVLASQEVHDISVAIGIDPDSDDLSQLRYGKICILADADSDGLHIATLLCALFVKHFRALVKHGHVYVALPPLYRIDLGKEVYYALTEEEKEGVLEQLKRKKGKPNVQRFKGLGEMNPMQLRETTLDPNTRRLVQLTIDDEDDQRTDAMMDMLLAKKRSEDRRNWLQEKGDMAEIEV
Sequence (P0AFI2 whole entry, further chain): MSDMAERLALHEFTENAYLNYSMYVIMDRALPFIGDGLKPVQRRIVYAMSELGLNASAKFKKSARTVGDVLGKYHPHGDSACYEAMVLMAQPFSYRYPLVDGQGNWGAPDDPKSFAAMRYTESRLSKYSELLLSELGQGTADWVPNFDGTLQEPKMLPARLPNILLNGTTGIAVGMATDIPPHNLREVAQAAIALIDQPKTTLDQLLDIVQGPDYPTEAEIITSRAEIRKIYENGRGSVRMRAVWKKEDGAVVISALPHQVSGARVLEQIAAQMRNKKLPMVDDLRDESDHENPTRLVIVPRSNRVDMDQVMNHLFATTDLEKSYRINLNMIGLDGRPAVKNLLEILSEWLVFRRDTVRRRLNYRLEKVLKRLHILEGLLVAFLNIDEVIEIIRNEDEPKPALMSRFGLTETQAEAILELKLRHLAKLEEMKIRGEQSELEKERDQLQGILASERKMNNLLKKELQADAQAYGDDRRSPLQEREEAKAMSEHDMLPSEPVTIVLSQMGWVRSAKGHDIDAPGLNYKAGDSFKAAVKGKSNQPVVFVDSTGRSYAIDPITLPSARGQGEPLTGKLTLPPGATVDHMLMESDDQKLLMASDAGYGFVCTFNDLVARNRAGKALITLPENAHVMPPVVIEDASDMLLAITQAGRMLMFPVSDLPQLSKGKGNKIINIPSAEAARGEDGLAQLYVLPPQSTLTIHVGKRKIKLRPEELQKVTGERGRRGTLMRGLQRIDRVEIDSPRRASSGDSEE
ASSAY DETAILS: Test for evaluating the activity of inhibiting E. coli topoisomerase IV enzyme (relaxation)
Format: biochemical
EXPERIMENTAL PARAMETERS: read-out: E. Coli TopoIV relaxation IC50
pIC50: −log10 of the molar value.
Given measured pIC50, output 1 if it is greater than or equal to 7 and 0 if not.

INSERT INTO results (input_smiles, assigned_label) VALUES
  ('CNc1cc(F)cc2cc(C(=O)Nc3ccc(C(=O)NS(=O)(=O)N(C)C)cc3)c(=O)[nH]c12', 1),
  ('CNc1cc(F)cc2cc(C(=O)Nc3cnc(C(=O)O)nc3)c(=O)[nH]c12', 1),
  ('CNc1cc(F)cc2cc(C(=O)Nc3ccccc3CN(C)C3CCCCC3)c(=O)[nH]c12', 0),
  ('CNc1cc(F)cc2cc(C(=O)Nc3ccccc3CN(CCO)C3CCCCC3)c(=O)[nH]c12', 0),
  ('CNc1cc(F)cc2cc(C(=O)Nc3ccc(C(=O)NCCN4CCOCC4)cc3)c(=O)[nH]c12', 0),
  ('CNc1cccc2cc(C(=O)Nc3ccc(C(=O)O)cc3)c(=O)[nH]c12', 0);

Now consider a different compound.
Task: Hi, just wondering whether CNc1cccc2cc(C(=O)NCCc3cccc(C(=O)O)c3)c(=O)[nH]c12 shows pIC50 of 7 or higher.
Output: 0
